Examples of binders with documented kon follow.
- TARGET UNDER TEST: T1, human GREM1 (hGREM1-His; SEQ ID NO: 595) (human, UniProt O60565 25-184)
- T1 construct: also called biotin-hGREM1-His; recombinant human GREM1 protein
- T1 sequence: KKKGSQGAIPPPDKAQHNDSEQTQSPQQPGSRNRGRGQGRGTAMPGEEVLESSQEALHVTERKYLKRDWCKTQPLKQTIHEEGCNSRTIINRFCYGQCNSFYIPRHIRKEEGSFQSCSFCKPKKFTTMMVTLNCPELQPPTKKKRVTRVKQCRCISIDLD
- ASSAY METHOD TEXT: SPR, Biacore T200, 37 C, mAb captured, hGREM1-His injected;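 also: HBS-EP running buffer containing heparin, association and dissociation phases tracked, KD computed as koff over kon and half-life derived from koff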
TEST READOUT: kon (M⁻¹ s⁻¹)

binder="H4H6240P (antibody, human IgG4, V domains shown, H4H prefix = human IgG4 Fc) VH: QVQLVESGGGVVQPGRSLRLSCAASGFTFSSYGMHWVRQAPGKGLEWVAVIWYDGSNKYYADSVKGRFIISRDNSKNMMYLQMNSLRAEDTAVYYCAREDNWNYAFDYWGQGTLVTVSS VL: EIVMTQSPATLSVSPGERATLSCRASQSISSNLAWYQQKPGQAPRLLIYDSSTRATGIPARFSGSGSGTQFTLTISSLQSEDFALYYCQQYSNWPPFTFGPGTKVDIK" test_readout=kon measured_result=121000
binder="H4H2892N (antibody, human IgG4, V domains shown, H4H prefix = human IgG4 Fc) VH: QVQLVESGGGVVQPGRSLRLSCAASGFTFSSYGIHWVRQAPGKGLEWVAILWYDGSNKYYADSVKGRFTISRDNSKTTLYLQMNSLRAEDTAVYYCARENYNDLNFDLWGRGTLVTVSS VL: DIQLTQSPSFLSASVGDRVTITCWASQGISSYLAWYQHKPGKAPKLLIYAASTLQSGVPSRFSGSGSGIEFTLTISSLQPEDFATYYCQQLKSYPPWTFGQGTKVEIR" test_readout=kon measured_result=171000
binder="H4H6232P (antibody, human IgG4, V domains shown, H4H prefix = human IgG4 Fc) VH: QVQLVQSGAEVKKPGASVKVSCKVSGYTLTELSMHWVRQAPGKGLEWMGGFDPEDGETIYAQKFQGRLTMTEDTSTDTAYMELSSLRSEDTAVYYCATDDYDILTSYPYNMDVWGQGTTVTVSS VL: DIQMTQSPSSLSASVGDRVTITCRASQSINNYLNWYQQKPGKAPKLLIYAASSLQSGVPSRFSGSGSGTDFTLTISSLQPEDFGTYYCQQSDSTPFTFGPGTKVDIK" test_readout=kon measured_result=113000
binder="H4H6246P (antibody, human IgG4, V domains shown, H4H prefix = human IgG4 Fc) VH: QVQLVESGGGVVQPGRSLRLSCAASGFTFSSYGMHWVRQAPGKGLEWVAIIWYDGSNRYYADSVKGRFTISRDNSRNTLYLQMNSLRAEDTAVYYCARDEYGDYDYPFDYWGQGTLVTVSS VL: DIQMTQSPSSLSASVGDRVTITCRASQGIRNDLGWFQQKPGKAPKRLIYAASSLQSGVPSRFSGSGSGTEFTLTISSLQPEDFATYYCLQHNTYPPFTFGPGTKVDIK" test_readout=kon measured_result=127000
binder="H4H6251P (antibody, human IgG4, V domains shown, H4H prefix = human IgG4 Fc) VH: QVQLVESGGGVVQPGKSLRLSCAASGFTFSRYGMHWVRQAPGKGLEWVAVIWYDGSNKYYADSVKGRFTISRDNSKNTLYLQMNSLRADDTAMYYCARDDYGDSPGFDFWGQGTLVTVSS VL: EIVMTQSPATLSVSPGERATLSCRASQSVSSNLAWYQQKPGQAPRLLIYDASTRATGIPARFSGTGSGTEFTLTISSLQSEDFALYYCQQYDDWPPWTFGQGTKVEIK" test_readout=kon measured_result=25300
binder="H4H6252P (antibody, human IgG4, V domains shown, H4H prefix = human IgG4 Fc; also called H4H6252S) VH: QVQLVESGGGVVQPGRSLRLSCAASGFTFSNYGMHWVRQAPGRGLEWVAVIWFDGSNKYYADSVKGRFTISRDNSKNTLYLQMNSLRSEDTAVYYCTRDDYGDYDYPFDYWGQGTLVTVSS VL: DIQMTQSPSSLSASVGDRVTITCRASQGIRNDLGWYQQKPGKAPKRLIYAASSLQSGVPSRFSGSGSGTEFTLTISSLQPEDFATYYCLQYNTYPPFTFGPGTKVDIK" test_readout=kon measured_result=111000
binder="H4H6250P (antibody, human IgG4, V domains shown, H4H prefix = human IgG4 Fc) VH: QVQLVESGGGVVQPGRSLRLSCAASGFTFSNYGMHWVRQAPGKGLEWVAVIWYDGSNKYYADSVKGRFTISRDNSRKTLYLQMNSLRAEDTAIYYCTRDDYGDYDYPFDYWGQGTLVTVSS VL: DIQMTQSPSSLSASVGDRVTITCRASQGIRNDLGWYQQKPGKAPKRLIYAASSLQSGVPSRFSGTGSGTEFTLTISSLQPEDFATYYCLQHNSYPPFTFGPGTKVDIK" test_readout=kon measured_result=149000
binder="H4H2889N (antibody, human IgG4, V domains shown, H4H prefix = human IgG4 Fc) VH: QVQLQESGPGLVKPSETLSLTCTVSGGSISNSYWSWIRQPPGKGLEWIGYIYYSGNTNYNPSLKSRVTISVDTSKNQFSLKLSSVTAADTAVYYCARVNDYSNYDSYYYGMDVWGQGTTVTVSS VL: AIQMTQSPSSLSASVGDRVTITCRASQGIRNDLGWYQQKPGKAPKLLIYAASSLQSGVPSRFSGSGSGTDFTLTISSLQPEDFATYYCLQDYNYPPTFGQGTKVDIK" test_readout=kon measured_result=104000
